ASSAY_SUMMARY: physchem
Description: Dissociation constant, pKa of the compound
MEASURE: pKa
The reply should be a number, written without any unit.

* Oc1ccc2ccccc2c1 [BETANAPHTHOL] | 9.4
* Oc1cccc(O)c1 [RESORCINOL] | 9.21
* O=C(OCc1ccccc1)c1cccnc1 [BENZYL NICOTINATE] | 3.94

# input Give its pKa value. Item: c1ccc2cnccc2c1 [ISOQUINOLINE]
# output 5.37

# input Give its pKa value. Item: CCC1(c2ccccc2)C(=O)NC(=O)NC1=O [PHENOBARBITAL]
# output 7.49

# input Give its pKa value. Item: Cc1ccc(C(C)C)c(O)c1 [THYMOL]
# output 10.6

# input Give its pKa value. Item: COC(=O)c1cccnc1 [METHYL NICOTINATE]
# output 3.84

# input Give its pKa value. Item: O=[N+]([O-])c1ccc(O)cc1 [P-NITROPHENOL]
# output 6.9
